Biological target: recombinant DDB1-CRBN (Homo sapiens)
Construct: His; made in house; host or cells: High Five insect cells (baculovirus made and propagated in SF9 cells)
Experiment: Fluorescence polarization-based competition assay for CRBN binding
Conditions: 200 nM CRBN-DDB1, 20 nM pomalidomide-fluorescein tracer 16, triplicates; read-out: FP_CRBN_binding: CRBN binding affinity, EC50
Source text: Prior to screening the compound library in the isogenic CPA, we assessed their CRBN binding affinities using a fluorescence-polarization-based competition assay with recombinant DDB1-CRBN and the fluorescent tracer 16 (Figure S2). […] We also assessed the cytotoxicity of the CRBN binders in RKO wild-type (WT) cells to determine the appropriate treatment concentration. […] Fluorescence Polarization‐based competition assay […]
pEC50: −log10 of the molar value.
VALUE KIND: pEC50

Some solved cases for reference:
Item under review: CC1c2cc(F)ccc2CCN1S(=O)(=O)Oc1cccc(Nc2cccc3c2C(=O)N(C2CCC(=O)NC2=O)C3=O)c1 (centres unmarked) [FL3-17] . Reported pEC50?
5.88

Input CC1(C)CN(S(=O)(=O)Oc2cccc(C3CCC(=O)NC3=O)c2)CCS1(=O)=O (centres unmarked) [FL6-7]
6.13

Input CC1(C)CN(S(=O)(=O)Oc2ccc(Nc3cccc4c3C(=O)N(C3CCC(=O)NC3=O)C4=O)cc2)CCS1(=O)=O (centres unmarked) [FL4-7]
6.13

a. CN(Cc1ccc2c(c1)OCO2)S(=O)(=O)Oc1cccc(Nc2ccc3c(c2)C(=O)N(C2CCC(=O)NC2=O)C3=O)c1 (centres unmarked) [FL1-20]
b. CC1c2cc(F)ccc2CCN1S(=O)(=O)Oc1ccc(C2CCC(=O)NC2=O)cc1 (centres unmarked) [FL5-17]
Which record would sort first by descending pEC50, a or b ? Reply briefly: the label of your chosen item.
b
